system_under_test: Cytochrome P450 1A2 (Homo sapiens)
test_method_notes: Cytochrome panel assay with activity outcomes
test_settings: recombinant CYP, pro-luciferin dealkylation, luminescence, p450-cyp1a2; series mostly up to 57.1 µM
Hit rate of the full screen: of about 16,000 compounds, about 5,700 (36%) were called active. Roughly 24% stayed inconclusive and do not appear here. This is one part of the list.
measurement_name: AC50

COC(=O)N1CCC2(CC1)CN(c1ccccn1)C2; inactive
O=C(Oc1ccccc1)N1CCC[C@@]2(CCN(c3ncccn3)C2)C1; 12.6 µM (active)
CC(=O)N1CCC2(CCCN(c3ccccn3)C2)CC1; inactive
COC(=O)N1CCC[C@@]2(CCN(c3ccccn3)C2)C1; 15.8 µM (active)
O=C(Nc1ccc(C(=O)Nc2ccc(C(=O)Nc3ccc(S(=O)(=O)O)c4cc(S(=O)(=O)O)cc(S(=O)(=O)O)c34)cc2)cc1)Nc1ccc(C(=O)Nc2ccc(C(=O)Nc3ccc(S(=O)(=O)O)c4cc(S(=O)(=O)O)cc(S(=O)(=O)O)c34)cc2)cc1; 31.6 µM (active)
COC(=O)N1CCC[C@@]2(CCN(c3ncccn3)C2)C1; inactive
O=C(Oc1ccccc1)N1CCC2(CC1)CN(c1ccccn1)C2; inactive
CC(=O)N1CCC[C@@]2(CCN(c3ncccn3)C2)C1; inactive

Enquiry: Which AC50 is reported for this compound? O=C(Oc1ccccc1)N1CCC2(CCCN(c3ncccn3)C2)CC1
Return: 10 µM (active)

Enquiry: Which AC50 is reported for this compound? O=C(Oc1ccccc1)N1CCC2(CCCN(c3ccccn3)C2)CC1
Return: 20 µM (active)

Enquiry: Which AC50 is reported for this compound? O=C(c1csnn1)N1CCC[C@@]2(CCN(c3ccccn3)C2)C1
Return: inactive

====

system_under_test: Cytochrome P450 1A2 (Homo sapiens)
test_method_notes: Cytochrome panel assay with activity outcomes
test_settings: recombinant CYP, pro-luciferin dealkylation, luminescence, p450-cyp1a2; series mostly up to 57.1 µM
Hit rate of the full screen: of about 16,000 compounds, about 5,700 (36%) were called active. About 24% were inconclusive and are not listed. Calls come from the whole dose curve; as a rule, active = well fitted curve in the direction sought with a large enough effect; inconclusive = small, poorly fitted or top-dose-only effect, or effect the other way; inactive = no such curve, though single readings can be large or run the other way. The list shows a part of the results.
Returns: one label drawn from YES for active, NO for inactive

Enquiry: Given CN(C)Cc1ccccc1-c1nccc(NCc2cccs2)n1 , state the outcome it received in this test.
Return: YES

Enquiry: # lookup: test call for CCO/C([O-])=N/c1c[n+](N2CCOCC2)no1
Return: NO

Enquiry: I would be grateful if you could indicate the recorded call for O=C(Nc1cc(Sc2ccccn2)cc([N+](=O)[O-])c1)c1ccc(Cl)cc1 .
Return: YES

Enquiry: What call does the record list for O=C(Nc1nnc(COc2ccc(Cl)cc2)s1)c1ccc([N+](=O)[O-])cc1 ?
Return: NO

Enquiry: GET /call?item= Cc1ccc(S(=O)(=O)CC(O)CN2CCCC2=O)cc1 (stereo unspecified) returns the recorded outcome of this test.
Return: NO

Enquiry: For Cc1ccc(-n2c(C)cc(C(=S)N3CCOCC3)c2C)cc1C , which call appears in the assay record?
Return: NO

Enquiry: What did the test return for COc1ncc2nc(C)c(=O)n(CCc3ccccc3)c2n1 ?
Return: YES

Enquiry: For this compound, state the assay outcome: COc1ccccc1CCn1c(=O)c(-c2cc(F)cc(F)c2)nc2cncnc21
Return: YES

Enquiry: Hey, what did the test say about COc1ccccc1CCn1c(=O)c(-c2cccc(F)c2)nc2cncnc21 ?
Return: YES

Enquiry: What is the recorded call for this compound in the test? COc1ncc2nc(-c3ccc(F)cc3)c(=O)n(CCc3ccccc3)c2n1
Return: YES

Enquiry: What did the test return for COc1ncc2nc(-c3ccc(F)cc3)c(=O)n(Cc3ccc(F)cc3)c2n1 ?
Return: YES
